run.description: total protein half-life in vivo (active degradation + dilution); higher = more stable protein
experimental.parameters: wild type E. coli NCM3722; growth: P-lim chemostat; doubling time 6 h
Measured total protein half-life in vivo of individual entries

sequence.input	readout.unit	total protein half-life in vivo
MSVIKMTDLDLAGKRVFIRADLNVPVKDGKVTSDARIRASLPTIELALKQGAKVMVTSHLGRPTEGEYNEEFSLLPVVNYLKDKLSNPVRLVKDYLDGVDVAEGELVVLENVRFNKGEKKDDETLSKKYAALCDVFVMDAFGTAHRAQASTHGIGKFADVACAGPLLAAELDALGKALKEPARPMVAIVGGSKVSTKLTVLDSLSKIADQLIVGGGIANTFIAAQGHDVGKSLYEADLVDEAKRLLTTCNIPVPSDVRVATEFSETAPATLKSVNDVKADEQILDIGDASAQELAEILKNAKTILWNGPVGVFEFPNFRKGTEIVANAIADSEAFSIAGGGDTLAAIDLFGIADKISYISTGGGAFLEFVEGKVLPAVAMLEERAKK [P0A799]	h	5.69
MIENRPWLTIFSHTMLILGIAVILFPLYVAFVAATLDKQAVYAAPMTLIPGTHLLENIHNIWVNGVGTNSAPFWRMLLNSFVMAFSITLGKITVSMLSAFAIVWFRFPLRNLFFWMIFITLMLPVEVRIFPTVEVIANLQMLDSYAGLTLPLMASATATFLFRQFFMTLPDELVEAARIDGASPMRFFCDIVFPLSKTNLAALFVITFIYGWNQYLWPLLIITDVDLGTTVAGIKGMIATGEGTTEWNSVMVAMLLTLIPPVVIVLVMQRAFVRGLVDSEK	h	6.34

###

run.description: total protein half-life in vivo (active degradation + dilution); higher = more stable protein
experimental.parameters: wild type E. coli NCM3722; growth: C-lim chemostat; doubling time 12 h
Form field: total protein half-life in vivo (one value per entry).

sequence.input	readout.unit	total protein half-life in vivo
MNLDDKSLFLDAMEDVQPLKRATDVHWHPTRNQRAPQRIDTLQLDNFLTTGFLDIIPLSQPLEFRREGLQHGVLDKLRSGKYPQQASLNLLRQPVEECRKMVFSFIQQALADGLRNVLIIHGKGRDDKSHANIVRSYVARWLTEFDDVQAYCTALPHHGGSGACYVALRKTAQAKQENWERHAKRSR	h	1.42
MNYRIIPVTAFSQNCSLIWCEQTRLAALVDPGGDAEKIKQEVDDSGLTLMQILLTHGHLDHVGAAAELAQHYGVPVFGPEKEDEFWLQGLPAQSRMFGLEECQPLTPDRWLNEGDTISIGNVTLQVLHCPGHTPGHVVFFDDRAKLLISGDVIFKGGVGRSDFPRGDHNQLISSIKDKLLPLGDDVIFIPGHGPLSTLGYERLHNPFLQDEMPVW	h	9.88
MKKTLLAAGAVLALSSSFTVNAAENDKPQYLSDWWHQSVNVVGSYHTRFGPQIRNDTYLEYEAFAKKDWFDFYGYADAPVFFGGNSDAKGIWNHGSPLFMEIEPRFSIDKLTNTDLSFGPFKEWYFANNYIYDMGRNKDGRQSTWYMGLGTDIDTGLPMSLSMNVYAKYQWQNYGAANENEWDGYRFKIKYFVPITDLWGGQLSYIGFTNFDWGSDLGDDSGNAINGIKTRTNNSIASSHILALNYDHWHYSVVARYWHDGGQWNDDAELNFGNGNFNVRSTGWGGYLVVGYNF [P0A927]	h	14.1

###

run.description: total protein half-life in vivo (active degradation + dilution); higher = more stable protein
experimental.parameters: wild type E. coli NCM3722; growth: P-lim chemostat; doubling time 12 h
total protein half-life in vivo by entry:

sequence.input	total protein half-life in vivo (h)
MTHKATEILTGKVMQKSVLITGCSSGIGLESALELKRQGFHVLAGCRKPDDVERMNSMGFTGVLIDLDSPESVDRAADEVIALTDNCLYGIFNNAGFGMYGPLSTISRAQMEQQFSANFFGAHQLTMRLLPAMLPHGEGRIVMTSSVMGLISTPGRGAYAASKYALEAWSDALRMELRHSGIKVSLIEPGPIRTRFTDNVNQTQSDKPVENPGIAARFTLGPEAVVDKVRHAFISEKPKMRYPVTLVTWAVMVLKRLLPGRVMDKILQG [P0AFP4]	10.4
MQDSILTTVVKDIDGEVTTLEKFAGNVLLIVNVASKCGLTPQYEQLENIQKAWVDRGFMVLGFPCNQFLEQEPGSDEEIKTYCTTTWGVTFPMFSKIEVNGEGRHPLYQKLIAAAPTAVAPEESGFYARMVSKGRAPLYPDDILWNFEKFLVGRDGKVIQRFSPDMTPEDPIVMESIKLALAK	11.1

###

Entries and their total protein half-life in vivo
run.description: total protein half-life in vivo (active degradation + dilution); higher = more stable protein
experimental.parameters: wild type E. coli NCM3722; growth: P-lim chemostat; doubling time 6 h
metric: total protein half-life in vivo (h)

sequence.input	recorded.value
MRLFNWRRQAVLNAMPLVKPDQVRTPWHEFWRRFRRQHMAMTAALFVILLIVVAIFARWIAPYDAENYFDYDNLNNGPSLQHWFGVDSLGRDIFSRVLVGAQISLAAGVFAVFIGAAIGTLLGLLAGYYEGWWDRLIMRICDVLFAFPGILLAIAVVAVLGSGIANVIIAVAIFSIPAFARLVRGNTLVLKQQTFIESARSIGASDMTVLLRHILPGTVSSIVVFFTMRIGTSIISAASLSFLGLGAQPPTPEWGAMLNEARADMVIAPHVAVFPALAIFLTVLAFNLLGDGLRDALDPKIKG	6.55
MTLETAFMLPVQDAQHSFRRLLKAMSEPGVIVALHQLKRGWQPLNIATTSVLLTLADNDTPVWLSTPLNNDIVNQSLRFHTNAPLVSQPEQATFAVTDEAISSEQLNALSTGTAVAPEAGATLILQVASLSGGRMLRLTGAGIAEERMIAPQLPECILHELTERPHPFPLGIDLILTCGERLLAIPRTTHVEVC	1.74

###

run.description: total protein half-life in vivo (active degradation + dilution); higher = more stable protein
experimental.parameters: wild type E. coli NCM3722; growth: N-lim chemostat; doubling time 12 h

sequence.input	total protein half-life in vivo (h)
MVRKGCNSLVRAEKILTHIAWVGMASYMELLNKFQYPKSSLLNLLNVMVDCGFLIKNKNGYYSLGIKNYELGCQALHRQNIFEVTKRPMQELSLKSGLVCHLGAMESISAIYLDKIESPDSVPTSKSWIGKKLELHITALGKALLAWKTREELDYFLEALTLTPHTRNTFTDKKLFLEELQKTRLRGWAIDNEESTYGAVCLSMPVFNMYNRVNYAISLSGDPVVYSGNKIDSYLELLRKCAEQISYGLGYRNENEHLRKGN	3.16
MTTKRKPYVRPMTSTWWKKLPFYRFYMLREGTAVPAVWFSIELIFGLFALKNGPEAWAGFVDFLQNPVIVIINLITLAAALLHTKTWFELAPKAANIIVKDEKMGPEPIIKSLWAVTVVATIVILFVALYW [P0A8Q0]	11.3
MSNKMTGLVKWFNADKGFGFISPVDGSKDVFVHFSAIQNDNYRTLFEGQKVTFSIESGAKGPAAANVIITD	0.434

###

run.description: total protein half-life in vivo (active degradation + dilution); higher = more stable protein
experimental.parameters: wild type E. coli NCM3722; growth: N-lim chemostat; doubling time 6 h
metric: total protein half-life in vivo

sequence.input	recorded.value
MIRFEHVSKAYLGGRQALQGVTFHMQPGEMAFLTGHSGAGKSTLLKLICGIERPSAGKIWFSGHDITRLKNREVPFLRRQIGMIFQDHHLLMDRTVYDNVAIPLIIAGASGDDIRRRVSAALDKVGLLDKAKNFPIQLSGGEQQRVGIARAVVNKPAVLLADEPTGNLDDALSEGILRLFEEFNRVGVTVLMATHDINLISRRSYRMLTLSDGHLHGGVGHE [P0A9R7]	5.48 h
MVKLPPLSLYIHIPWCVQKCPYCDFNSHALKGEVPHDDYVQHLLNDLDNDVAYAQGREVKTIFIGGGTPSLLSGPAMQTLLDGVRARLPLAADAEITMEANPGTVEADRFVDYQRAGVNRISIGVQSFSEEKLKRLGRIHGPQEAKRAAKLASGLGLRSFNLDLMHGLPDQSLEEALGDLRQAIELNPPHLSWYQLTIEPNTLFGSRPPVLPDDDALWDIFEQGHQLLTAAGYQQYETSAYAKPGYQCQHNLNYWRFGDYIGIGCGAHGKVTFPDGRILRTTKTRHPRGFMQGRYLESQRDVEATDKPFEFFMNRFRLLEAAPRVEFIAYTGLCEDVIRPQLDEAIAQGYLTECADYWQITEHGKLFLNSLLELFLAE	4.03 h

###

run.description: total protein half-life in vivo (active degradation + dilution); higher = more stable protein
experimental.parameters: wild type E. coli NCM3722; growth: C-lim chemostat; doubling time 6 h

sequence.input	total protein half-life in vivo, h
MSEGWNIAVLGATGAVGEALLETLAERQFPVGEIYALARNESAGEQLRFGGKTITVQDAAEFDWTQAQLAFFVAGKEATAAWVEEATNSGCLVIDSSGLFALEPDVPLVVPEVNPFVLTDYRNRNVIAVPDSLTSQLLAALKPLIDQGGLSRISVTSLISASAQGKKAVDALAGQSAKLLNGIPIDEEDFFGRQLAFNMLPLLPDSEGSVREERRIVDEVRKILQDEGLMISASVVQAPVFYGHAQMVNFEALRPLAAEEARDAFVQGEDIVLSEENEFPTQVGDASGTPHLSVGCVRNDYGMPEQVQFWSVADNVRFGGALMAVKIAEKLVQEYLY	5.61
